System: serine acetyltransferase
Test: Serine acetyltransferase enzyme activity test with and without L-cysteine (inhibitor constant Ki, specific activity)
Format: biochemical, E. coli
Settings: Table 1b; carboxyterminal deletions
Readout: spec. act. (μmol/min x mg)
The response must be a number in μmol/min x mg with no trailing unit.

Incoming: Form field: reported spec. act. of cysE-Del255: carboxyterminal deletion of 18 amino acids, terminal Asp255 (protein, UniProt P0A9D4 1-255, looked up, fragment) MSCEELEIVWNNIKAEARTLADCEPMLASFYHATLLKHENLGSALSYMLANKLSSPIMPAIAIREVVEEAYAADPEMIASAACDIQAVRTRDPAVDKYSTPLLYLKGFHALQAYRIGHWLWNQGRRALAIFLQNQVSVTFQVDIHPAAKIGRGIMLDHATGIVVGETAVIENDVSILQSVTLGGTGKSGGDRHPKIREGVMIGAGAKILGNIEVGRGAKIGAGSVVLQPVPPHTTAAGVPARIVGKPDSDKPSMD
Outgoing: 0.624

Incoming: Form field: reported spec. act. of cysE-Del257: carboxyterminal deletion of 16 amino acids, terminal Asp257 (protein, UniProt P0A9D4 1-257, looked up, fragment) MSCEELEIVWNNIKAEARTLADCEPMLASFYHATLLKHENLGSALSYMLANKLSSPIMPAIAIREVVEEAYAADPEMIASAACDIQAVRTRDPAVDKYSTPLLYLKGFHALQAYRIGHWLWNQGRRALAIFLQNQVSVTFQVDIHPAAKIGRGIMLDHATGIVVGETAVIENDVSILQSVTLGGTGKSGGDRHPKIREGVMIGAGAKILGNIEVGRGAKIGAGSVVLQPVPPHTTAAGVPARIVGKPDSDKPSMDMD
Outgoing: 0.394

Incoming: Form field: reported spec. act. of cysE-Del248: carboxyterminal deletion of 25 amino acids, terminal Asp248 (protein, UniProt P0A9D4 1-248, looked up, fragment) MSCEELEIVWNNIKAEARTLADCEPMLASFYHATLLKHENLGSALSYMLANKLSSPIMPAIAIREVVEEAYAADPEMIASAACDIQAVRTRDPAVDKYSTPLLYLKGFHALQAYRIGHWLWNQGRRALAIFLQNQVSVTFQVDIHPAAKIGRGIMLDHATGIVVGETAVIENDVSILQSVTLGGTGKSGGDRHPKIREGVMIGAGAKILGNIEVGRGAKIGAGSVVLQPVPPHTTAAGVPARIVGKPD
Outgoing: 0.270

Incoming: Form field: reported spec. act. of cysE-Del256: carboxyterminal deletion of 17 amino acids, terminal Met256 (protein, UniProt P0A9D4 1-256, looked up, fragment) MSCEELEIVWNNIKAEARTLADCEPMLASFYHATLLKHENLGSALSYMLANKLSSPIMPAIAIREVVEEAYAADPEMIASAACDIQAVRTRDPAVDKYSTPLLYLKGFHALQAYRIGHWLWNQGRRALAIFLQNQVSVTFQVDIHPAAKIGRGIMLDHATGIVVGETAVIENDVSILQSVTLGGTGKSGGDRHPKIREGVMIGAGAKILGNIEVGRGAKIGAGSVVLQPVPPHTTAAGVPARIVGKPDSDKPSMDM
Outgoing: 0.366

Incoming: Form field: reported spec. act. of cysE-Del250: carboxyterminal deletion of 23 amino acids, terminal Asp250 (protein, UniProt P0A9D4 1-250, looked up, fragment) MSCEELEIVWNNIKAEARTLADCEPMLASFYHATLLKHENLGSALSYMLANKLSSPIMPAIAIREVVEEAYAADPEMIASAACDIQAVRTRDPAVDKYSTPLLYLKGFHALQAYRIGHWLWNQGRRALAIFLQNQVSVTFQVDIHPAAKIGRGIMLDHATGIVVGETAVIENDVSILQSVTLGGTGKSGGDRHPKIREGVMIGAGAKILGNIEVGRGAKIGAGSVVLQPVPPHTTAAGVPARIVGKPDSD
Outgoing: 0.405

Incoming: Form field: reported spec. act. of cysE-Del249: carboxyterminal deletion of 24 amino acids, terminal Ser249 (protein, UniProt P0A9D4 1-249, looked up, fragment) MSCEELEIVWNNIKAEARTLADCEPMLASFYHATLLKHENLGSALSYMLANKLSSPIMPAIAIREVVEEAYAADPEMIASAACDIQAVRTRDPAVDKYSTPLLYLKGFHALQAYRIGHWLWNQGRRALAIFLQNQVSVTFQVDIHPAAKIGRGIMLDHATGIVVGETAVIENDVSILQSVTLGGTGKSGGDRHPKIREGVMIGAGAKILGNIEVGRGAKIGAGSVVLQPVPPHTTAAGVPARIVGKPDS
Outgoing: 0.420
